Item-by-item account of Ki
# Assayed target: Delta-type opioid receptor (Homo sapiens, UniProt P41143)
# Sequence (P41143 whole entry): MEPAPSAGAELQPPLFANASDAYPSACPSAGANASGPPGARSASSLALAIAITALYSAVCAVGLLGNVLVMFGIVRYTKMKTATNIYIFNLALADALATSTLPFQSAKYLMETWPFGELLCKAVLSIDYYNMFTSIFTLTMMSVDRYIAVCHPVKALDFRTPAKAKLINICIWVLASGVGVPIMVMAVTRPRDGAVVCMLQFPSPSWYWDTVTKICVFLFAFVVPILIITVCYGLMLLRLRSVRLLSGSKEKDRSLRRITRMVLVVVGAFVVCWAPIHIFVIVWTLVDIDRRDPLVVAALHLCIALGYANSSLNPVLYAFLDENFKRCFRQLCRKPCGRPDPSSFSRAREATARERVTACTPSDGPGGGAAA
# Protocol details: Displacement of [3H]naltrindole from human delta opioid receptor expressed in CHO cells

{"columns": ["Molecule", "Result unit", "Limit operator", "Ki"],
 "data": [
  ["OCCCCCCCCCCC(O)c1cc2c(cc1O)[C@@]13CCCC[C@H]1[C@@H](C2)N(CC1CCC1)CC3 (mixture of isomers)", "nM", "=", 610],
  ["CN1CC[C@]23CCCC[C@H]2[C@H]1Cc1cc(CNCc2ccccc2)c(O)cc13", "nM", ">", 10000],
  ["Ic1ccc(CN(Cc2ccc(I)cc2)c2ccc3c(c2)[C@@]24CCCC[C@H]2[C@@H](C3)N(CC2CCC2)CC4)cc1", "nM", "=", 960],
  ["c1ccc(CNc2ccc3c(c2)[C@@]24CCCC[C@H]2[C@@H](C3)N(CC2CCC2)CC4)cc1", "nM", "=", 130]
]}

* * *

Item-by-item account of Ratio Ki
# Species on record: Homo sapiens
# Protocol details: Selectivity ratio of Ki for human kappa opioid receptor to Ki for human mu opioid receptor
Quantity measured: Ratio Ki

{"columns": ["Smi", "Quantitative readout"],
 "data": [
  ["Oc1cc2c(cc1CNCCCCCCNCc1cc3c(cc1O)[C@@]14CCCC[C@H]1[C@@H](C3)N(CC1CCC1)CC4)C[C@@H]1[C@@H]3CCCC[C@]23CCN1CC1CCC1", 0.5],
  ["O=C(CCCCC(=O)NCc1cc2c(cc1O)[C@@]13CCCC[C@H]1[C@@H](C2)N(CC1CCC1)CC3)NCc1cc2c(cc1O)[C@@]13CCCC[C@H]1[C@@H](C2)N(CC1CCC1)CC3", 1],
  ["CCCNCc1cc2c(cc1O)[C@@]13CCCC[C@H]1[C@@H](C2)N(CC1CCC1)CC3", 1],
  ["c1ccc(CNc2ccc3c(c2)[C@@]24CCCC[C@H]2[C@@H](C3)N(CC2CCC2)CC4)cc1", 1.6],
  ["CCN(CCCCCCN(CC)Cc1cc2c(cc1O)[C@@]13CCCC[C@H]1[C@@H](C2)N(CC1CCC1)CC3)Cc1cc2c(cc1O)[C@@]13CCCC[C@H]1[C@@H](C2)N(CC1CCC1)CC3", 1]
]}

* * *

# Organism: Homo sapiens
# Protocol details: Selectivity ratio of Ki for human kappa opioid receptor to Ki for human mu opioid receptor
Output yes for records whose Ratio Ki is lower than 1, no for records at or above 1.

{"columns": ["Smi", "Classification"],
 "data": [
  ["Ic1ccc(CNc2ccc3c(c2)[C@@]24CCCC[C@H]2[C@@H](C3)N(CC2CCC2)CC4)cc1", "no"],
  ["COc1ccc(CN(Cc2ccc(OC)cc2)c2ccc3c(c2)[C@@]24CCCC[C@H]2[C@@H](C3)N(CC2CC2)CC4)cc1", "no"],
  ["OCc1cc2c(cc1O)[C@@]13CCCC[C@H]1[C@@H](C2)N(CC1CCC1)CC3", "yes"],
  ["CN1CC[C@]23CCCC[C@H]2[C@H]1Cc1cc2c(cc13)OCN(Cc1ccccc1)C2", "no"]
]}

* * *

# Assayed target: UniProtKB P35372
# Sequence (P35372 whole entry): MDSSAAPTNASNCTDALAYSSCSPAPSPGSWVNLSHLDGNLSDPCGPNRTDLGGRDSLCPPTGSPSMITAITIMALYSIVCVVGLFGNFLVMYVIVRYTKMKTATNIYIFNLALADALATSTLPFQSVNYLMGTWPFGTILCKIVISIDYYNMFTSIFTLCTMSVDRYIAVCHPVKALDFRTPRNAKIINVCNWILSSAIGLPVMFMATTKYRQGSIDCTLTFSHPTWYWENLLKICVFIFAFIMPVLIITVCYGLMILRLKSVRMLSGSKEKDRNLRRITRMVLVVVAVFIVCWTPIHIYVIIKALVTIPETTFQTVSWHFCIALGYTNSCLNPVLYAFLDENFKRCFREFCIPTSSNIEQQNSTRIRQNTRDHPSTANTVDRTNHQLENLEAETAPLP
pKi: −log10 of the molar value.

{"columns": ["Compound", "pKi"],
 "data": [
  ["CN1CC[C@]23CCCC[C@H]2[C@H]1Cc1ccc(NC(=O)Nc2ccc(I)cc2)cc13", 7.77],
  ["CN1CC[C@]23CCCC[C@H]2[C@H]1Cc1ccc(NC(=O)Nc2ccccc2)cc13", 7.96],
  ["O=C(Nc1ccc(I)cc1)Oc1ccc2c(c1)[C@@]13CCCC[C@H]1[C@@H](C2)N(CC1CC1)CC3", 9.24],
  ["c1ccc(CNc2ccc3c(c2)[C@@]24CCCC[C@H]2[C@@H](C3)N(CC2CCC2)CC4)cc1", 8.77],
  ["CCCNCc1cc2c(cc1O)[C@@]13CCCC[C@H]1[C@@H](C2)N(CC1CCC1)CC3", 6.48],
  ["Oc1cc2c(cc1C(O)CCCCCCCCCCC(O)c1cc3c(cc1O)[C@@]14CCCC[C@H]1[C@@H](C3)N(CC1CCC1)CC4)C[C@@H]1[C@@H]3CCCC[C@]23CCN1CC1CCC1 (mixture of isomers)", 7.46],
  ["Oc1cc2c(cc1CNCCCCNCc1cc3c(cc1O)[C@@]14CCCC[C@H]1[C@@H](C3)N(CC1CCC1)CC4)C[C@@H]1[C@@H]3CCCC[C@]23CCN1CC1CCC1", 8.17]
]}

* * *

# Assayed target: Delta-type opioid receptor (Homo sapiens, UniProt P41143)
# Protocol details: Displacement of [3H]naltrindole from human delta opioid receptor expressed in CHO cells
pKi: −log10 of the molar value.

{"columns": ["Molecule", "Limit operator", "pKi"],
 "data": [
  ["CCC(O)c1cc2c(cc1O)[C@@]13CCCC[C@H]1[C@@H](C2)N(CC1CCC1)CC3 (mixture of isomers)", "<", 5.00],
  ["CCCNCc1cc2c(cc1O)[C@@]13CCCC[C@H]1[C@@H](C2)N(CC1CCC1)CC3", "<", 5.00],
  ["c1ccc(Nc2ccc3c(c2)[C@@]24CCCC[C@H]2[C@@H](C3)N(CC2CCC2)CC4)cc1", "=", 7.41],
  ["CN1CC[C@]23CCCC[C@H]2[C@H]1Cc1ccc(NC(=O)Nc2ccc(I)cc2)cc13", "=", 6.52],
  ["NCc1cc2c(cc1O)[C@@]13CCCC[C@H]1[C@@H](C2)N(CC1CCC1)CC3", "<", 5.00],
  ["c1ccc(Nc2ccc3c(c2)[C@@]24CCCC[C@H]2[C@@H](C3)N(CC2CC2)CC4)cc1", "=", 8.27],
  ["O=C(Nc1ccccc1)Nc1ccc2c(c1)[C@@]13CCCC[C@H]1[C@@H](C2)N(CC1CC1)CC3", "=", 7.80],
  ["COc1ccc(Nc2ccc3c(c2)[C@@]24CCCC[C@H]2[C@@H](C3)N(CC2CCC2)CC4)cc1", "=", 7.72],
  ["COc1ccc(CNc2ccc3c(c2)[C@@]24CCCC[C@H]2[C@@H](C3)N(CC2CC2)CC4)cc1", "=", 7.70],
  ["CCCCC(O)c1cc2c(cc1O)[C@@]13CCCC[C@H]1[C@@H](C2)N(CC1CCC1)CC3 (mixture of isomers)", "=", 7.14],
  ["CCN(CCCCN(CC)Cc1cc2c(cc1O)[C@@]13CCCC[C@H]1[C@@H](C2)N(CC1CCC1)CC3)Cc1cc2c(cc1O)[C@@]13CCCC[C@H]1[C@@H](C2)N(CC1CCC1)CC3", "=", 5.96],
  ["O=C(Nc1ccc(I)cc1)Nc1ccc2c(c1)[C@@]13CCCC[C@H]1[C@@H](C2)N(CC1CC1)CC3", "=", 7.03],
  ["Oc1cc2c(cc1C(O)CCCCC(O)c1cc3c(cc1O)[C@@]14CCCC[C@H]1[C@@H](C3)N(CC1CCC1)CC4)C[C@@H]1[C@@H]3CCCC[C@]23CCN1CC1CCC1 (mixture of isomers)", "=", 5.80],
  ["O=C(Nc1ccc(I)cc1)Nc1ccc2c(c1)[C@@]13CCCC[C@H]1[C@@H](C2)N(CC1CCC1)CC3", "=", 6.60],
  ["O=C(Nc1ccc(I)cc1)Oc1ccc2c(c1)[C@@]13CCCC[C@H]1[C@@H](C2)N(CC1CC1)CC3", "=", 7.84]
]}

* * *

Item-by-item account of log10 of Ki
# Assayed target: Delta-type opioid receptor (Homo sapiens)
# Protocol details: Displacement of [3H]naltrindole from human delta opioid receptor expressed in CHO cells
Quantity measured: log10 of Ki (log10 of the value in nM)

{"columns": ["Smi", "Assayed target", "Quantitative readout"],
 "data": [
  ["O=C(Nc1ccc(I)cc1)Oc1ccc2c(c1)[C@@]13CCCC[C@H]1[C@@H](C2)N(CC1CCC1)CC3", "Delta-type opioid receptor (Homo sapiens)", 1.83],
  ["CN1CC[C@]23CCCC[C@H]2[C@H]1Cc1ccc(NC(=O)Nc2ccccc2)cc13", "Delta-type opioid receptor (Homo sapiens)", 2.51],
  ["COc1ccc(Nc2ccc3c(c2)[C@@]24CCCC[C@H]2[C@@H](C3)N(CC2CC2)CC4)cc1", "Delta-type opioid receptor (Homo sapiens)", 0.23],
  ["c1ccc(CNc2ccc3c(c2)[C@@]24CCCC[C@H]2[C@@H](C3)N(CC2CC2)CC4)cc1", "Delta-type opioid receptor (Homo sapiens)", 1.46],
  ["COc1ccc(CN(Cc2ccc(OC)cc2)c2ccc3c(c2)[C@@]24CCCC[C@H]2[C@@H](C3)N(CC2CC2)CC4)cc1", "Delta-type opioid receptor (Homo sapiens)", 2.08],
  ["Ic1ccc(CNc2ccc3c(c2)[C@@]24CCCC[C@H]2[C@@H](C3)N(CC2CCC2)CC4)cc1", "Delta-type opioid receptor (Homo sapiens)", 2.28]
]}
